study_target: DCTN2 Dynactin subunit 2 (Homo sapiens, UniProt Q13561)
Construct: isoTOP-ABPP experiments performed in cell lysates (in vitro); endogenous in cells; host or cells: soluble proteome of human cancer cell lines (MDA-MB-231, Ramos, Jurkat)
Sequence (Q13561 whole entry): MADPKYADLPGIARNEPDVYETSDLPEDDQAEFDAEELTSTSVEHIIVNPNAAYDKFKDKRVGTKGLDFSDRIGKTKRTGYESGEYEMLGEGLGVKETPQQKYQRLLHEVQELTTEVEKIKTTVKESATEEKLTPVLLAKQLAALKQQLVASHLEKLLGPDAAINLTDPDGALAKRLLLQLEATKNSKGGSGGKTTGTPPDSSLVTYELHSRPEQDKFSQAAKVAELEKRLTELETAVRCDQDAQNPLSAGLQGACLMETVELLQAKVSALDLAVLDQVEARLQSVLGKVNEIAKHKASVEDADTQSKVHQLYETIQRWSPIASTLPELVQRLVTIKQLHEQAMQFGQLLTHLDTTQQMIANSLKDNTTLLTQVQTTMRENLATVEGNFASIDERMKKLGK
assay_method_text: competitive isoTOP-ABPP
Format: binding
condition_notes: 50 uM_231_sol_in vitro
Examples of molecules with documented isoTOP-ABPP ratio, lysine Q13561_K175 follow.

# molecule, isoTOP-ABPP ratio, lysine Q13561_K175
measured = [
    ("O=C(Oc1c(F)c(F)cc(F)c1F)c1cc(C(F)(F)F)cc(C(F)(F)F)c1 [fragment 48]", 0.7),
    ("O=C(ON1C(=O)CCC1=O)c1cc(C(F)(F)F)cc(C(F)(F)F)c1 [fragment 46]", 0.8),
    ("O=C(Oc1c(F)c(F)c(C(F)(F)F)c(F)c1F)c1cc(C(F)(F)F)cc(C(F)(F)F)c1 [fragment 47]", 1.0),
    ("O=C(CCc1ccc2c(c1)OCO2)Oc1ccc([N+](=O)[O-])cc1[N+](=O)[O-] [fragment 45]", 1.6),
    ("NC(=O)c1cc(C(F)(F)F)cc(C(F)(F)F)c1 [fragment 51, reference compound]", 0.9),
    ("N#Cc1ccc(C(=O)Oc2ccc([N+](=O)[O-])cc2[N+](=O)[O-])cc1 [fragment 44, 2,4-Dinitrophenyl 4-cyanobenzoate]", 0.8),
]

---

# isoTOP-ABPP ratio, lysine P17858_K715 listing for each entry below
study_target: PFKL 6-phosphofructokinase, liver type (Homo sapiens)
Construct: isoTOP-ABPP experiments performed in cell lysates (in vitro); endogenous in cells; host or cells: soluble proteome of human cancer cell lines (MDA-MB-231; Ramos and Jurkat also prepared)
Sequence (P17858 1-780): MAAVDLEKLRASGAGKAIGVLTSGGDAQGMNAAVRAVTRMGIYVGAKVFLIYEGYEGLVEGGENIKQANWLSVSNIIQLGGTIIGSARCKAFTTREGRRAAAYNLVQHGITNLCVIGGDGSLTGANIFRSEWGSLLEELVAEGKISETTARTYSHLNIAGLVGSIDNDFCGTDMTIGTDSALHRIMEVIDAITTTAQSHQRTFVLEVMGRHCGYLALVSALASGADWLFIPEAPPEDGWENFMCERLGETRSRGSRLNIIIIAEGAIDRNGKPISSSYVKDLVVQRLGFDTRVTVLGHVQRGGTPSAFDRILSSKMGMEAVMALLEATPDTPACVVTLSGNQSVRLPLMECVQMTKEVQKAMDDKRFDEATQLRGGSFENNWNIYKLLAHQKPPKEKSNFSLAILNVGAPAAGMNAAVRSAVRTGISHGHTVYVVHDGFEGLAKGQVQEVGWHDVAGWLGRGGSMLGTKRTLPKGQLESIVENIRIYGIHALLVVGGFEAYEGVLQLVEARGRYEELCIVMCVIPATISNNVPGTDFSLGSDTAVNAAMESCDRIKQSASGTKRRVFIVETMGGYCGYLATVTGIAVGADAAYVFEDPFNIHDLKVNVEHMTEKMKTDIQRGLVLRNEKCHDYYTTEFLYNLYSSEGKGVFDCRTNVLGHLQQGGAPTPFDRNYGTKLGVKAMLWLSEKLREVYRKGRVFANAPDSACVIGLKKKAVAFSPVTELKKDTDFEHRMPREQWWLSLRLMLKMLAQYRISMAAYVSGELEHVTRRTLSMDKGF
assay_method_text: competitive isoTOP-ABPP
Assay type: binding
condition_notes: 50 uM_231_sol_in vitro; possible other lysine P17858_K714
quantity_name: isoTOP-ABPP ratio, lysine P17858_K715

# molecule, quantity_name, number
measured = [
    ("O=C(Oc1c(F)c(F)cc(F)c1F)c1cc(C(F)(F)F)cc(C(F)(F)F)c1", "isoTOP-ABPP ratio, lysine P17858_K715", 1.0),
    ("N#Cc1ccc(C(=O)Oc2ccc([N+](=O)[O-])cc2[N+](=O)[O-])cc1 [fragment 44, 2,4-Dinitrophenyl 4-cyanobenzoate]", "isoTOP-ABPP ratio, lysine P17858_K715", 1.8),
    ("O=C(Oc1c(F)c(F)c(C(F)(F)F)c(F)c1F)c1cc(C(F)(F)F)cc(C(F)(F)F)c1", "isoTOP-ABPP ratio, lysine P17858_K715", 1.0),
    ("O=C(ON1C(=O)CCC1=O)c1cc(C(F)(F)F)cc(C(F)(F)F)c1", "isoTOP-ABPP ratio, lysine P17858_K715", 0.8),
    ("O=C(CCc1ccc2c(c1)OCO2)Oc1ccc([N+](=O)[O-])cc1[N+](=O)[O-]", "isoTOP-ABPP ratio, lysine P17858_K715", 10.9),
    ("NC(=O)c1cc(C(F)(F)F)cc(C(F)(F)F)c1 [fragment 51, reference compound]", "isoTOP-ABPP ratio, lysine P17858_K715", 0.9),
]
